Measurement Target: phosphorylated EGFR (pEGFR) (Homo sapiens, UniProt P00533)
Construct: performed to measure phosphorylated EGFR levels using A431 cells (10% FBS); endogenous in cells
Sequence (P00533 25-1210): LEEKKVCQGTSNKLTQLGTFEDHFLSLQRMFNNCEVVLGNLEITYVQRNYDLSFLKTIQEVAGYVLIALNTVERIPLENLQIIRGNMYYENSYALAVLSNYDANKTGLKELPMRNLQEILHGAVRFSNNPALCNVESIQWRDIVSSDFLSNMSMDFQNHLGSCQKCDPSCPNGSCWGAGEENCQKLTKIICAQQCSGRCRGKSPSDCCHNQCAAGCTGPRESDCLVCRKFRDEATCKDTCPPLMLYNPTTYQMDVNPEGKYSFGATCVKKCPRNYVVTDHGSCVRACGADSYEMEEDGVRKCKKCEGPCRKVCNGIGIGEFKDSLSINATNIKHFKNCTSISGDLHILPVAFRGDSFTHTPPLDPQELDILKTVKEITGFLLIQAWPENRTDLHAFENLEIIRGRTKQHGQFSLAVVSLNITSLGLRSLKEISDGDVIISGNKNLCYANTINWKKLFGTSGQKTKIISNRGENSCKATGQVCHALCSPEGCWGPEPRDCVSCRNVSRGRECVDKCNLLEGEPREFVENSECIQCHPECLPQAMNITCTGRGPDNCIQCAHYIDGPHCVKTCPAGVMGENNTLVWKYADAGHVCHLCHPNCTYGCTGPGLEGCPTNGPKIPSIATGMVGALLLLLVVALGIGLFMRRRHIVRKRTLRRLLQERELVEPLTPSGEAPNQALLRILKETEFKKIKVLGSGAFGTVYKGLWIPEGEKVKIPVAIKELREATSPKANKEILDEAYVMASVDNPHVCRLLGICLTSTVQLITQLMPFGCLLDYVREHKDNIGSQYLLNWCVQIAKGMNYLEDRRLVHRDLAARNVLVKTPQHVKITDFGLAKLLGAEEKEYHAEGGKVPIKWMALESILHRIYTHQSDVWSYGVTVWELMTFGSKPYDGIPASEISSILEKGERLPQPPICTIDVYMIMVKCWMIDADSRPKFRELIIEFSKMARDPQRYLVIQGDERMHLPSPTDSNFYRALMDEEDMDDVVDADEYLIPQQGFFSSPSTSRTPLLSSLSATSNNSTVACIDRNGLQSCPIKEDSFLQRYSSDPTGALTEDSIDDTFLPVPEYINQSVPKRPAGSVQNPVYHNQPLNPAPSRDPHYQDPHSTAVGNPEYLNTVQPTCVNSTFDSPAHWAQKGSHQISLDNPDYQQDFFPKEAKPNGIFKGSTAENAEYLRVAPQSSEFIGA
Assay Remarks: Detection of phosphorylated EGFR (pEGFR) by AlphaLISA in EGF-stimulated A431 cells
Measurement Setup: A431 cells (10% FBS), 4 hours incubation, EGF 30 ng/mL for 10 minutes
Experimental: Enzyme-linked immunosorbent assays (ELISA) were performed to measure phosphorylated EGFR levels using A431 cells (10% FBS). A431 (1.0*10^4 cells/40 μl/well) cells were seeded in 384 well. […] Acceptor mix (PerkinElmer, cat #ALSU-PEGFR-A50K) was prepared just before use and 5 μL was dispensed to all the wells, followed by a 1.5-2 h incubation at room temperature in dark. […] Plates were read on the Envision (PerkinElmer) using standard AlphaLISA settings. […]
The following compounds are shown together with reported IC50 values.

Here is how some compounds turned out for IC50.
Give IC50 for the following compound: "Cc1cc(Nc2ncnc3cc4c(nc23)N2CCNC[C@H]2CO4)ccc1Oc1ccc2c(c1)ncn2C" > 10 µM

Give IC50 for the following compound: "Cc1cc(Nc2ncnc3cc4c(nc23)N2CCN(C(=O)/C=C/CN(C)C)C[C@H]2CO4)ccc1Oc1ccc2c(c1)ncn2C" 0.307 µM

Give IC50 for the following compound: "Cc1cc(Nc2ncnc3cnc4c(c23)OC[C@H]2COCCN42)ccc1Oc1ccn2ncnc2c1" > 10 µM

Give IC50 for the following compound: "C=CC(=O)N1CCN2c3cc4c(Nc5ccc(Oc6ccn7ncnc7c6)c(C)c5)ncnc4cc3OC[C@@H]2C1" 0.212 µM

Give IC50 for the following compound: "Cc1cc(Nc2ncnc3cnc4c(c23)O[C@H]2CCN(C)C[C@H]2N4C)ccc1Oc1ccc2c(c1)ncn2C" > 10 µM

New cases:
Give IC50 for the following compound: "Cc1cc(Nc2ncnc3ccc4c(c23)OC[C@H]2CCCN42)ccc1Oc1ccn2ncnc2c1" > 10 µM

Give IC50 for the following compound: "Cc1cc(Nc2ncnc3cc4c(nc23)N2CCN(C)C[C@H]2CO4)ccc1Oc1ccc2c(c1)ncn2C" > 10 µM
